Test system: CDK3
Condition Context: concentration: 1 μM, replicates: in singlicate; n = 1;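 further: KINOMEscan kinase panel screen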
Give %Inh for every item shown.

1. COC(=O)c1c(-c2ccccc2)c2cc(Cl)ccc2c(=O)n1Cc1ccc(S(C)(=O)=O)cc1	0%
2. Cl.Fc1ccccc1COc1ccc(Nc2ncnc3ccc(-c4nnc(C(F)(F)F)o4)cc23)cc1Cl	0%
3. Nc1n[nH]c2nnc(-c3ccccc3)cc12	20%
4. Cc1ccc(O)cc1Nc1cc(C(F)(F)F)nc2ccc(-c3ccncc3)cc12	0%

Request: Recorded %Inh of Cl.Cl.c1ccc(-c2cc3ccncc3cc2OC2CCNCC2)cc1 , please.
Result: 10%

###

Tested on: EPHB2
Condition Context: concentration: 1 μM, replicates: in singlicate; n = 1
Give %Inh for every item shown.
State the value with its unit after it.

Examples with answers:
1) CC(C)(C)c1ccc(-n2cnc3c(N)ncnc32)cc1	17%
2) CSc1nn2c(=O)cc(N3CCOCC3)nc2n1Cc1cccc(Cl)c1Cl	0%
3) Cc1ccc(O)cc1Nc1cc(C(F)(F)F)nc2ccc(-c3ccncc3)cc12	3%

For every item in the list below, what is its measured %Inh?
1. O=C(Nc1n[nH]c2nc(-c3ccco3)c(Br)cc12)c1ccc(CN2CCCC2)cc1.O=C(O)[C@H](O)[C@@H](O)C(=O)O
2. FC(F)(F)c1ccc(-c2cc(-c3c[nH]nc3-c3ccccn3)ccn2)cc1

Result:
47%
0%
